# System: UACC-257 melanoma
# assay.explanation: NCI tumour cell line growth inhibition, 48 h; in the data active = GI50 below about 0.43 µM; inactive = the rest
API: response.call in label 1 = active, label 0 = inactive

Look over these answered cases.
O=C(Nc1sc2c(c1C(=O)O)CCCC2)c1ccco1
label 0
C/C(=N/NC(=S)Nc1ccccc1)c1nc2ccc(Cl)cc2[nH]1
label 1
CCOC(=O)Nc1ccc2nc(-c3cscn3)[nH]c2c1
label 0

Task item: What was the test verdict on O=C1C(=O)c2c(nc3ccc(C(F)(F)F)cn23)-c2ccccc21 ?
Reply: label 1

====

# System: A549 NSCLC
# assay.explanation: NCI tumour cell line growth inhibition, 48 h
Would you mind telling me the reported TGI of each entry?

Recorded TGI, per entry:
CC1CCC2C(C)C(=O)OC2C2(C)C(=O)C=CC12 (stereo not given)
> 10 µM
CCOc1c(Br)cc(Br)cc1C=C(C#N)C#N
> 10 µM
CC(C)(C)C[C@H]1N[C@@H](C(=O)NC2CCC(O)CC2)[C@H](c2cccc(Cl)c2F)[C@@]12C(=O)Nc1cc(Cl)ccc12 (stereo not given in full)
16.4 µM
C[C@@]1(F)[C@H](O)[C@@H](CO)O[C@H]1n1ccc(=O)[nH]c1=O
> 100 µM

Batch request: TGI per item, same order as input.
1. O=CCCCCCOCc1ccccc1
2. CSC(SC)=C(C(=O)c1ccc(Cl)cc1)n1c(=O)sc2cc(Br)ccc21
3. COc1ccc2c(c1)C(=O)c1c-2c(OCCCN(C)C)nc2cc(Br)ccc12
4. CN1CCN(C2=NC(=O)/C(=C\c3ccc(N(C)C)cc3)S2)CC1
5. CC1=C(CO)C(=O)OC(C(C)C2CCC3C4CC5OC56C(O)C(N5CC5)=CC(=O)C6(C)C4CCC23C)C1 (stereo not given)

Reply:
["> 100 µM", "> 100 µM", "11.4 µM", "> 100 µM", "29.6 µM"]
